Parameter IC50, tested on UniProtKB Q16539, listed per item.
Sequence (Q16539 whole entry): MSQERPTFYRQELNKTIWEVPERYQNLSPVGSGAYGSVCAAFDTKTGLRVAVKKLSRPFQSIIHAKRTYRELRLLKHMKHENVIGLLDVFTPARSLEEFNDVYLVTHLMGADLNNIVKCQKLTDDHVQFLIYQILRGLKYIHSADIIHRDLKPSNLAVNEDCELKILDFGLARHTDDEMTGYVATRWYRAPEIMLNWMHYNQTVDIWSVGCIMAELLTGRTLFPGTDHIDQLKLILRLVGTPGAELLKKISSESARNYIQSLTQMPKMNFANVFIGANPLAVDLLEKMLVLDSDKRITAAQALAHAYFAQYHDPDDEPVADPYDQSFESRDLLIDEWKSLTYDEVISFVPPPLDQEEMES
Note: unit pM is implicit; provide only the numeric part.

// below: answered molecules
[O-][n+]1ccc2c(-c3ccc(F)cc3F)cc(C3CCNCC3)nc2c1-c1c(F)cccc1F: 900
CC(C)(C)N1CCC(c2cc(-c3ccc(F)cc3Cl)c3cc[n+]([O-])c(-c4c(F)cccc4F)c3n2)CC1: 1600

Now let's try a different one.
In plain terms, [O-][n+]1ccc2c(-c3ccc(F)cc3F)cc(OC3CCNCC3)nc2c1-c1c(Cl)cccc1Cl has a documented IC50 of 920
